Numbers sourced from patent US20260184782A1.

Exercise: state measured pKd for each of the binders provided.
# TARGET: T1, recombinant human TIGIT (human, UniProt Q495A1 22-141, limits assumed)
# T1 construct: recombinant human TIGIT used in Carterra SPR; also called hTIGIT
# T1 sequence (looked up): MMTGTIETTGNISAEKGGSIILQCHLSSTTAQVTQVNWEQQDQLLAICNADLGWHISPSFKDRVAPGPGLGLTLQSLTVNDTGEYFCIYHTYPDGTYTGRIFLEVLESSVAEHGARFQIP
# ASSAY: SPR Carterra, average
Scale: pKd equals -log10([C]), with [C] in mol/L.

Ask | Supply recorded pKd for TIGIT-SC197 (Fc fusion, VHH-Fc fusion in assay) VHH: EVQLVESGGGLVQPGGSLRLSCAASGFTFDRSWMGWFRQAPGKEREWVASVLRGGYTWYADSVKGRFTISADNSKNTAYLQMNSLKPEDTAVYYCAREGRTAGWFDPWGQGTLVTVSS here.
Reply | 8.03

Ask | Supply recorded pKd for TIGIT-SC200 (Fc fusion, VHH-Fc fusion in assay) VHH: EVQLVESGGGLVQPGGSLRLSCAASGNTFSGGFMGWFRQAPGKEREWVASVLRGGYTWYADSVKGRFTISADNSKNTAYLQMNSLKPEDTAVYYCTRDGGFDPWGQGTLVTVSS here.
Reply | 8.27
